meta.source: patent US7052714B1

# experimentalProtocol: In vivo test-2: SJA6017 transdermal patch, transfer to the plasma and ocular tissues
# Design: species or system Wistar/ST rats
# experimentalContext: male, Wistar/ST, rat, eyeball/plasma, other: transdermal patch applied on the abdominal skin, 30 cm^2 patch, transdermal application, SJA6017 patch 30 cm^2, rat; 12 hours after application; read-out: Eyeball/plasma ratio
reportedMetric: Kp at 12 h

Challenge: Param item = "CC(C)C[C@@H](C=O)NC(=O)[C@@H](NS(=O)(=O)c1ccc(F)cc1)C(C)C" ; retrieve measured Kp at 12 h.
Response given: ~0.16

* * *

# experimentalProtocol: In vivo test-1: transfer of drugs from transdermal patches to the plasma and ocular tissues
# experimentalContext: male, Wistar/ST, rat, plasma, other: transdermal patch applied on the abdominal skin, 10 cm^2 patch
reportedMetric: concentration at 4 h (ng/mL)
Give your result in ng/mL as a bare value.

Challenge: Param item = CC(C)C[C@@H](C=O)NC(=O)[C@@H](NS(=O)(=O)c1ccc(F)cc1)C(C)C [SJA6017] ; retrieve measured concentration at 4 h.
Response given: 36

* * *

# experimentalProtocol: In vivo test-1: transfer of drugs from transdermal patches to the plasma and ocular tissues
# experimentalContext: male, Wistar/ST, rat, plasma, other: transdermal patch applied on the abdominal skin, 10 cm^2
reportedMetric: concentration at 12 h (ng/mL)
Give your result in ng/mL as a bare value.

Challenge: Param item = "CC(C)C[C@@H](C=O)NC(=O)[C@@H](NS(=O)(=O)c1ccc(F)cc1)C(C)C" ; retrieve measured concentration at 12 h.
Response given: 114

* * *

# experimentalProtocol: In vivo test-2: intravenous administration experiment
# Design: species or system Wistar rats
# experimentalContext: male, Wistar; intravenous injection 2 mg/kg, rat; 15 minutes after injection; read-out: Intraocular concentration, itemized: Other ocular tissues (cornea, sclera, iris-ciliary body, vitreous body, retina-choroid)
reportedMetric: concentration at 15 min

Challenge: Param item = CC(C)C[C@@H](C=O)NC(=O)[C@@H](NS(=O)(=O)c1ccc(F)cc1)C(C)C [SJA6017] ; retrieve measured concentration at 15 min.
Response given: 33.4 ng/g

* * *

# experimentalProtocol: In vivo test-1: transfer of drugs from transdermal patches to the plasma and ocular tissues
# experimentalContext: male, Wistar/ST, rat, plasma, other: transdermal patch applied on the abdominal skin, 10 cm^2
reportedMetric: concentration at 24 h

Challenge: Param item = "CC(C)C[C@@H](C=O)NC(=O)[C@@H](NS(=O)(=O)c1ccc(F)cc1)C(C)C" ; retrieve measured concentration at 24 h.
Response given: 98 ng/mL

* * *

# experimentalProtocol: In vivo test-2: intravenous administration experiment
# Set-up: species or system Wistar rats
# experimentalContext: male, Wistar, eyeball/plasma; intravenous injection 2 mg/kg, rat; 15 minutes after injection; read-out: Eyeball/plasma ratio
reportedMetric: Kp at 15 min
API doc: respond with a numeric literal and nothing else, no unit.

Challenge: Param item = "CC(C)C[C@@H](C=O)NC(=O)[C@@H](NS(=O)(=O)c1ccc(F)cc1)C(C)C" ; retrieve measured Kp at 15 min.
Response given: 0.13

* * *

# experimentalProtocol: In vivo test-1: transfer of drugs from transdermal patches to the plasma and ocular tissues
# experimentalContext: male, Wistar/ST, rat, plasma, other: transdermal patch applied on the abdominal skin, 10 cm^2 patch
reportedMetric: concentration at 6 h (ng/mL)
Give your result in ng/mL as a bare value.

Challenge: Param item = "CC(C)C[C@@H](C=O)NC(=O)[C@@H](NS(=O)(=O)c1ccc(F)cc1)C(C)C" ; retrieve measured concentration at 6 h.
Response given: 58
